Entries and their measured ELISA OD 450 nm follow.
target: SARS-CoV-2 Spike trimer (Table A) (SARS-CoV-2), P0DTC2; experiment: ELISA, purified IgG; conditions: remark: other sources report otherwise
Quick note: unit goes after the number.

Binder: COV2-2952 (antibody, V domains shown) VH: EVQLVESGGGLVQPGGSLRLSCAASGLTVRSNYMTWVRQTPGKGLEWVSVIYSGGSTFYADSVKGRFTISRDNSKNTVYLQMNSLRAEDTAVYYCARDLVTYGLDVWGQGTTVTVSS VL: DIQLTQSPSFLSASVGDRVTITCRASQGISNYLAWYQQKPGTAPNLLIYAASTLQSGVPSRFSGSGSGTEFTLTISSLQPEDFATYYCQLLNSHPLTFGQGTRLEIK
Readout value: 3.54 OD 450 nm
--
Binder: COV2-2096 (antibody, V domains shown) VH: QVQLVQSGAEVKKPGASVKVSCKASGYTFGSFDINWVRQATGQGLEWMGRMNSNSGNTAYAQKFQGRVTMTRDTSTNTAYMELSSLRSEDTAMYYCARMRSGWPTHGRPDDFWGRGTLVTVSS VL: QSVLTQAPSASGTPGQRVTISCSGSNSNIGSYTINWYQQLPGTAPKLLIYGNDQRTSGVPDRFSGSKFGTSASLAISGLQSEDENNYYCAVWDDSLNGLVFGGGTKLTVL
Readout value: 4.3 OD 450 nm
--
Binder: COV2-2165 (antibody, V domains shown) VH: EVQLVESGGGLVQPGGSLRLSCAASGLTVRSNYMTWVRQTPGKGLEWVSVIYSGGSTFYADSVKGRFTISRDNSKNTVYLQMNSLRAEDTAVYYCARDLVTYGLDVWGQGTTVTVSS VL: DIQLTQSPSFLSASVGDRVTITCRASQGISNYLAWYQQKPGTAPNLLIYAASTLQSGVPSRFSGSGSGTEFTLTISSLQPEDFATYYCQLLNSHPLTFGQGTRLEIK
Readout value: 4.2 OD 450 nm

Next, consider the following binder.
**Query** Give its ELISA OD 450 nm value. Item: COV2-2391 (antibody, V domains shown) VH: QVQLVQSGAEVKKPGASVKVSCKASGYTFGSFDINWVRQATGQGLEWMGRMNSNSGNTAYAQKFQGRVTMTRDTSTNTAYMELSSLRSEDTAMYYCARMRSGWPTHGRPDDFWGRGTLVTVSS VL: QSVLTQAPSASGTPGQRVTISCSGSNSNIGSYTINWYQQLPGTAPKLLIYGNDQRTSGVPDRFSGSKFGTSASLAISGLQSEDENNYYCAVWDDSLNGLVFGGGTKLTVL
**Result** 3.57 OD 450 nm
